Task for the reader: assign each of the following compounds its reported IC50.
molecular target: PSMA-expressing C4-2 cells (Homo sapiens); construct: PSMA-expressing C4-2 cells (ATCC, Cat. No. CRL-3314) were cultured in RPMI-1640; host or cells: C4-2 cells; experiment: FACS binding assay (competition with 50 nM PSM-0183); conditions: pIC50 category of FACS binding, C4-2 cells; read-out: pIC50 [C4-2] CAT (converted)
Sequence (Q04609 whole entry): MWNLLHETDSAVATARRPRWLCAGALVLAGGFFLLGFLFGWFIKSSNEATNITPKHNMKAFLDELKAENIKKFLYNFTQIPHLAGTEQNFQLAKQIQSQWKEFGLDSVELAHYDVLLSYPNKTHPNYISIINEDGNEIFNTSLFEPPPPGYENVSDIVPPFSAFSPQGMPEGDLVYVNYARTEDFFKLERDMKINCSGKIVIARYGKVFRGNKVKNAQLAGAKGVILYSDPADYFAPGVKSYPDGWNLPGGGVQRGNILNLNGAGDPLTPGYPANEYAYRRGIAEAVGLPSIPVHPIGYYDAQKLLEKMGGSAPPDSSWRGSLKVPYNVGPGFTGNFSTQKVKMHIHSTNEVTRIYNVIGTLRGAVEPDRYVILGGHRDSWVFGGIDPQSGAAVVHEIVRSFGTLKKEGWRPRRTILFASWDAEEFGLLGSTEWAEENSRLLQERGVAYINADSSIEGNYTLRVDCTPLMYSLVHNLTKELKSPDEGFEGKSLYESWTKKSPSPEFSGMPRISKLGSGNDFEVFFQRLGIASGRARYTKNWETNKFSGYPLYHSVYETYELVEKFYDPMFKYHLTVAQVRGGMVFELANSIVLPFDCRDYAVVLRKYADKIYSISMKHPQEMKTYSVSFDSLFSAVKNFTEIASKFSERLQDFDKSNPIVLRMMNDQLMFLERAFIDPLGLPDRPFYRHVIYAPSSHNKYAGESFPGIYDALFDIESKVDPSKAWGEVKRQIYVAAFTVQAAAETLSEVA
Numbered stars: 1 amine (or outer) side, 2 acyl side, 3 side chain; on linkers, the order of the positions; unused ones are H or OH. Bridge positions count the residues as written; N and C are the ends. Square brackets hold non-standard residues; d marks the D form. Peptide text beside a SMILES is read from it. * marks the point of attachment. X3 = O=C(O)CN1CCN(CC(=O)O)CCN(CC(=O)NCCCOCCOCCOCCCN*)CCN(CC(=O)O)CC1; DOTA = O=C(O)CN1CCN(CC(=O)O)CCN(CC(=O)*)CCN(CC(=O)O)CC1; Oic = O=C(O)[C@@H]1C[C@@H]2CCCC[C@@H]2N1; Phe(4-Cl) = N[C@@H](Cc1ccc(Cl)cc1)C(=O)O; Arg(Me2s) = CN=C(NC)NCCC[C@H](N)C(=O)O; Phe(4-Me) = Cc1ccc(C[C@H](N)C(=O)O)cc1; X1 = O=C(CC1CCN([*:1])CC1)[*:2]; Lys(Me) = CNCCCC[C@H](N)C(=O)O; Suc = O=C(CCC(=O)[*:2])[*:1]; Tle = CC(C)(C)[C@H](N)C(=O)O; αMeS = C[C@](N)(CO)C(=O)O; Nle = CCCC[C@H](N)C(=O)O; Aib = CC(C)(N)C(=O)O; Sar = CNCC(=O)O

Here is how some compounds turned out for IC50.
INSERT INTO results (compound, outcome_measure, reading) VALUES
  ('CCCC[C@H](NC(=O)[C@@H]1CSSC[C@H](NC(=O)[C@H](Cc2ccccc2)NC(=O)[C@H](C)NC(=O)[C@@H](NC(C)=O)[C@@H](C)O)C(=O)N[C@@H](CCCCN)C(=O)N[C@@H](CCCNC(=N)N)C(=O)N[C@@H](C)C(=O)N[C@@H](CC(N)=O)C(=O)N1)C(=O)N[C@H](C(=O)N[C@H](CC(=O)O)C(N)=O)[C@@H](C)O [PSM-0389]', 'IC50', '< 0.2 µM'),
  ('CC(=O)N[C@H](C(=O)NC(C)(C)C(=O)N[C@@H](Cc1ccccc1)C(=O)N[C@H]1CSSC[C@@H](C(=O)N[C@H](C(=O)N[C@H](C(=O)N[C@@H](CC(=O)O)C(N)=O)[C@@H](C)O)C(C)(C)C)NC(=O)[C@H](CC(N)=O)NC(=O)[C@@H]2C[C@@H]3CCCC[C@@H]3N2C(=O)[C@H](CCCNC(=N)N)NC(=O)[C@H](CCCCN)NC1=O)[C@@H](C)O [PSM-0403] (Ac-T[Aib]FCKR[Oic]NC[Tle]TD-NH2; disulfide 4-9)', 'IC50', '< 0.2 µM'),
  ('CCCC[C@H](NC(=O)[C@@H]1CSSC[C@H](NC(=O)[C@H](Cc2ccccc2)NC(=O)[C@H](C)NC(=O)[C@@H](NC(=O)CCC(=O)NCCCOCCOCCOCCCNC(=O)CN2CCN(CC(=O)O)CCN(CC(=O)O)CCN(CC(=O)O)CC2)[C@@H](C)O)C(=O)N[C@@H](CCCCN)C(=O)N[C@@H](CCCNC(=N)N)C(=O)N[C@@H](C)C(=O)N[C@@H](CC(N)=O)C(=O)N1)C(=O)N[C@H](C(=O)N[C@@H](CC(=O)O)C(N)=O)[C@@H](C)O [PSM-0504] ({X3-Suc}-TAFCKRANC[Nle]TD-NH2; disulfide 4-9)', 'IC50', '0.2 to 1.26 µM'),
  ('C/N=C(/NC)NCCC[C@@H]1NC(=O)[C@H](CCCCNC)NC(=O)[C@@H](NC(=O)[C@H](Cc2ccc(Cl)cc2)NC(=O)C(C)(C)NC(=O)[C@@H](NC(=O)CC2CCN(C(=O)CN3CCN(CC(=O)O)CCN(CC(=O)O)CCN(CC(=O)O)CC3)CC2)[C@@H](C)O)CSSC[C@@H](C(=O)N[C@H](C(=O)N[C@H](C(N)=O)[C@@H](C)O)C(C)(C)C)NC(=O)[C@H](CC(N)=O)NC(=O)C(C)(C)NC1=O [PSM-0499] ({DOTA}-[X1]T[Aib][Phe(4-Cl)]C[Lys(Me)][Arg(Me2s)][Aib]NC[Tle]T-NH2; disulfide 5-10)', 'IC50', '< 0.2 µM'),
  ('CC(=O)NC(C)(C)C(=O)N[C@@H](Cc1ccccc1)C(=O)N[C@H]1CSSC[C@@H](C(=O)N[C@H](C(=O)N[C@H](C(=O)N[C@@H](CC(=O)O)C(N)=O)[C@@H](C)O)C(C)(C)C)NC(=O)[C@H](CC(N)=O)NC(=O)[C@H](C)NC(=O)[C@H](CCCNC(=N)N)NC(=O)[C@H](CCCCN)NC1=O [PSM-0506] (Ac-[Aib]FCKRANC[Tle]TD-NH2; disulfide 3-8)', 'IC50', '< 0.2 µM'),
  ('CC(=O)N[C@H](C(=O)N(C)CC(=O)N[C@@H](Cc1ccccc1)C(=O)N[C@H]1CSSC[C@@H](C(=O)N[C@H](C(=O)N[C@H](C(N)=O)[C@@H](C)O)C(C)(C)C)NC(=O)[C@H](CC(N)=O)NC(=O)C(C)(C)NC(=O)[C@H](CCCNC(=N)N)NC(=O)[C@H](CCCCN)NC1=O)[C@@H](C)O [PSM-0408] (Ac-T[Sar]FCKR[Aib]NC[Tle]T-NH2; disulfide 4-9)', 'IC50', '0.2 to 1.26 µM'),
  ('CC(=O)N[C@H](C(=O)NC(C)(C)C(=O)N[C@@H](Cc1ccccc1)C(=O)N[C@H]1CSSC[C@@H](C(=O)N[C@H](C(=O)N[C@H](C(N)=O)[C@@H](C)O)C(C)(C)C)NC(=O)[C@H](CC(N)=O)NC(=O)[C@H](C)NC(=O)[C@H](CCCNC(=N)N)NC(=O)[C@H](CCCCN)NC1=O)[C@@H](C)O [PSM-0552] (Ac-T[Aib]FCKRANC[Tle]T-NH2; disulfide 4-9)', 'IC50', '< 0.2 µM'),
  ('CC(=O)N[C@H](C(=O)NC(C)(C)C(=O)N[C@@H](Cc1ccccc1)C(=O)N[C@H]1CSSC[C@@H](C(=O)N[C@H](C(=O)N[C@H](C(N)=O)[C@@H](C)O)C(C)(C)C)NC(=O)[C@H](Cc2ccccc2)NC(=O)C(C)(C)NC(=O)[C@H](CCCNC(=N)N)NC(=O)[C@H](CCCCN)NC1=O)[C@@H](C)O [PSM-0541] (Ac-T[Aib]FCKR[Aib]FC[Tle]T-NH2; disulfide 4-9)', 'IC50', '< 0.2 µM'),
  ('C[C@@H](O)[C@H](NC(=O)[C@@H](NC(=O)[C@@H]1CSSC[C@H](NC(=O)[C@H](Cc2ccc(Cl)cc2)NC(=O)C(C)(C)NC(=O)[C@@H](NC(=O)CC2CCN(C(=O)CN3CCN(CC(=O)O)CCN(CC(=O)O)CCN(CC(=O)O)CC3)CC2)[C@@H](C)O)C(=O)N[C@@H](CCCCN)C(=O)N[C@@H](CCCNC(=N)N)C(=O)N[C@@](C)(CO)C(=O)N[C@@H](CC(N)=O)C(=O)N1)C(C)(C)C)C(N)=O [PSM-0382] ({DOTA}-[X1]T[Aib][Phe(4-Cl)]CKR[αMeS]NC[Tle]T-NH2; disulfide 5-10)', 'IC50', '< 0.2 µM');

Turning to the following compound.
GET /values?readout=IC50&item= CC(=O)N[C@H](C(=O)NC(C)(C)C(=O)N[C@@H](Cc1ccc(C)cc1)C(=O)N[C@H]1CSSC[C@@H](C(=O)N[C@H](C(=O)N[C@H](C(N)=O)[C@@H](C)O)C(C)(C)C)NC(=O)[C@H](CC(N)=O)NC(=O)C(C)(C)NC(=O)[C@H](CCCNC(=N)N)NC(=O)[C@H](CCCCN)NC1=O)[C@@H](C)O [PSM-0372] (Ac-T[Aib][Phe(4-Me)]CKR[Aib]NC[Tle]T-NH2; disulfide 4-9)
< 0.2 µM
